- PROTOCOL NOTES: yeast display, Sf9 membrane polyspecificity reagent, FACS + sequencing; frameworks hold sequencing errors
MEASUREMENT LABEL: polyreactivity (PSR sort gate)

SEQ TEXT	polyreactivity (PSR sort gate)
QVQLVESGGGLVQAGGSLRLSCAASGRIIGAYAMGWYRQAPGKERELVAAITSRGGNTYYADSVKGRITISRDNAKNTVYFQMNSLKPEDTAVYYCAAGVRAYNWCEYDYWGQGTQVTVSS	low polyreactivity
QVQLVESGGGLVQAGGSLRLSCAASGNIFYTNAMGWYRQAPGKERELVAAISGSGGRTYYADSVKGRFTISRDNAKNTVYLQMNSLKPEDTAVYYCNAVRREYYDRTYGYWGQGTQVTVSS	low polyreactivity
QVQLVESGAGLVQAGGSLRLSCAASGRTFRYSAMGWYRQAPGKERELVAAISSRGNTYYADSVKGRFTISRDNAKNTVYLQMNTLKPEDTAVYYCAAYVYRVQYDFDYWGQGTQVTVSS	high polyreactivity
QVQLVESGGGLVQAGGSLRLSCAASGRTFRVYARGWYRQAPGKERELVATITSSGGSTYYADSVKGRFTISRDNAKNTVYLQMNSLKPEDTAVYYCNVSVYYNYDSSYYYWGQGTQVTVSS	low polyreactivity

Lab note: QVQLVESGGGLVQAGGSLRLSCAASGFTFSRNAMGWYRQAPGKERELVAAISSSGGSTYYADSVKGRFTISRDNAKNTVYLQMNSLKPEDTAVYYCNVDHWRRGRSDNYWGQGTQVTVSS gave polyreactivity (PSR sort gate) of high polyreactivity
